System: Radical scavenging activity
Assay: Antioxidant activity assessed as DPPH free radical scavenging activity after 20 mins
Type: functional
Active and inactive are the calls of the source. The calls are words filed in the database; no cut-off is given here.
I would appreciate it if you answered using one of these outcomes: active, inactive

Challenge: Recorded test outcome, item `O=C1NC(=O)C(=Cc2c[nH]c3ccccc23)C(=O)N1`
Response given: active

Challenge: Recorded test outcome, item `Cc1ccc2[nH]c(-c3ccccc3)c(C=C3C(=O)NC(=O)NC3=O)c2c1`
Response given: inactive

Challenge: Recorded test outcome, item `O=C1NC(=S)NC(=O)C1=Cc1c[nH]c2ccccc12`
Response given: active

Challenge: Recorded test outcome, item `Cc1ccc2[nH]c(-c3ccccc3)c(C=C3C(=O)NC(=S)NC3=O)c2c1`
Response given: inactive

Challenge: Recorded test outcome, item `O=C1NC(=S)NC(=O)C1=Cc1c(-c2ccccc2)[nH]c2ccc(Cl)cc12`
Response given: active

Challenge: Recorded test outcome, item `O=C1NC(=O)/C(=C/c2c[nH]c3ccccc23)S1`
Response given: active

Challenge: Recorded test outcome, item `CC1=NNC(=O)/C1=C/c1c(-c2ccccc2)[nH]c2ccc(C)cc12`
Response given: inactive

Challenge: Recorded test outcome, item `O=C1NC(=O)C(=Cc2c(-c3ccccc3)[nH]c3ccc(Cl)cc23)C(=O)N1`
Response given: active

Challenge: Recorded test outcome, item `CC1=NNC(=O)/C1=C/c1c[nH]c2ccccc12`
Response given: active

Challenge: Recorded test outcome, item `Cc1ccc2[nH]c(-c3ccccc3)c(/C=C3\SC(=O)NC3=O)c2c1`
Response given: inactive

Challenge: Recorded test outcome, item `CC1=NNC(=O)/C1=C/c1c(-c2ccccc2)[nH]c2ccc(Cl)cc12`
Response given: active

Challenge: Recorded test outcome, item `O=C1NC(=O)/C(=C/c2c(-c3ccccc3)[nH]c3ccc(Cl)cc23)S1`
Response given: active

###

Test system: HeLa
Test: Cytotoxicity against human HeLa cells by MTT assay
Assay type: functional, cell-based
measured-metric: IC50 (µM)
Answer in µM, number only, no unit symbol.

Challenge: What value of IC50 has been reported for the following compound? `O=C1NC(=O)/C(=C/c2c[nH]c3ccccc23)S1`
Response given: 60.7

Challenge: What value of IC50 has been reported for the following compound? `O=C1NC(=S)NC(=O)C1=Cc1c[nH]c2ccccc12`
Response given: 63

###

Test: Antioxidant activity assessed as ferric ion reducing ability at after 20 mins by spectrophotometric analysis
Type: functional
measured-metric: Activity

Cc1ccc2[nH]c(-c3ccccc3)c(C=C3C(=O)NC(=S)NC3=O)c2c1
Dose-dependent effect
O=C1NC(=O)/C(=C/c2c(-c3ccccc3)[nH]c3ccc(Cl)cc23)S1
Dose-dependent effect
Cc1ccc2[nH]c(-c3ccccc3)c(C=C3C(=O)NC(=O)NC3=O)c2c1
Dose-dependent effect
CC1=NNC(=O)/C1=C/c1c(-c2ccccc2)[nH]c2ccc(Cl)cc12
Dose-dependent effect
O=C1NC(=O)C(=Cc2c[nH]c3ccccc23)C(=O)N1
Dose-dependent effect
O=C1NC(=S)NC(=O)C1=Cc1c[nH]c2ccccc12
Dose-dependent effect

Challenge: What value of Activity has been reported for the following molecule? `O=C1NC(=O)/C(=C/c2c[nH]c3ccccc23)S1`
Response given: Dose-dependent effect

###

System: HeLa
Experiment: Cytotoxicity against human HeLa cells by MTT assay
Type: functional, cell-based
measured-metric: IC50
Note: a bare number is incomplete; add the unit.

Challenge: What value of IC50 has been reported for the following compound? `O=C1NC(=O)C(=Cc2c(-c3ccccc3)[nH]c3ccc(Cl)cc23)C(=O)N1`
Response given: 30 µM

Challenge: What value of IC50 has been reported for the following compound? `O=C1NC(=O)/C(=C/c2c(-c3ccccc3)[nH]c3ccc(Cl)cc23)S1`
Response given: 7 µM

Challenge: What value of IC50 has been reported for the following compound? `CC1=NNC(=O)/C1=C/c1c[nH]c2ccccc12`
Response given: 33.1 µM

Challenge: What value of IC50 has been reported for the following compound? `O=C1NC(=S)NC(=O)C1=Cc1c(-c2ccccc2)[nH]c2ccc(Cl)cc12`
Response given: 23.5 µM

Challenge: What value of IC50 has been reported for the following compound? `O=C1NC(=O)C(=Cc2c[nH]c3ccccc23)C(=O)N1`
Response given: 74 µM

FYI, the data here is from ChEMBL document CHEMBL1909534.
